Recorded Cmax for the following molecules
# assay method text: in vivo
# applied conditions: rat, plasma, po, 10 mg/kg

>  <molecule>
COc1cncc(CN(C)C(=O)NC(C(=O)N[C@@H](Cc2ccccc2)C[C@H](O)[C@H](Cc2ccccc2)NC(=O)OCc2cccnc2)C(C)C)c1 (stereo partly drawn)

>  <Cmax (nM)>
180

$$$$
>  <molecule>
CC(C)C(NC(=O)OCc1ccccn1)C(=O)N[C@@H](Cc1ccccc1)[C@@H](O)C[C@H](Cc1ccccc1)NC(=O)OCc1ccoc1 (stereo partly drawn)

>  <Cmax (nM)>
250

$$$$
>  <molecule>
COc1ccc(COC(=O)NC(C(=O)N[C@@H](Cc2ccccc2)C[C@H](O)[C@H](Cc2ccccc2)NC(=O)OCc2cccnc2)C(C)C)nc1 (stereo partly drawn)

>  <Cmax (nM)>
290

$$$$

Reference source for all entries: ChEMBL document CHEMBL1131475
